# Tested on: Rat whole blood (RWB)
# protocol.notes: LTB4 secretion assay in RWB (rat whole blood)
# Format: cell-based
# measurement.context: Rattus norvegicus
pEC50: −log10 of the molar value.
Property: pEC50; scope: individual molecules

So, "CCn1c(NCc2ccc(Oc3ncc(Cl)cn3)cc2F)nc2ccc(Nc3cc(C(F)(F)F)n(C)n3)cc21" ? Its pEC50 was > 5.00

---

# key: entry, value: melting point

>  <molecule>
Cn1c(NCc2ccc(OCc3ccc(Cl)cn3)cc2)nc2ccc(N)cc21 [Compound 314]

>  <melting point>
96.6 to 100.9 °C

$$$$
>  <molecule>
Nc1ccc2nc(N)n(Cc3ccc(Oc4ccc(Cl)cc4)cc3)c2c1 [Compound 111]

>  <melting point>
156.4 to 158.5 °C

$$$$
>  <molecule>
Nc1ccc2[nH]c(NCc3cccc4ccccc34)nc2c1 [Compound 91]

>  <melting point>
> 107.8 °C

$$$$
>  <molecule>
Nc1cc2nc(NCc3ccc(Oc4ccc(Cl)cc4)cc3)[nH]c2cc1Cl [Compound 147]

>  <melting point>
191.4 to 193.5 °C

$$$$
>  <molecule>
CN(C)c1nc2cc(N)ccc2n1CCOc1ccc(OC(F)(F)F)cc1 [Compound 43]

>  <melting point>
60.8 to 61.6 °C

$$$$

melting point reading for Nc1ccc2[nH]c(NCc3ccc(S(=O)(=O)Nc4ccc(Cl)cc4)cc3)nc2c1 [Compound 151] : > 200 °C

The molecule listed as Cc1cnn(-c2nc3cc(N4CCN(c5ccc(F)cc5)CC4)ccc3[nH]2)c1 [Compound 25] has a reported melting point of > 220 °C

For record Nc1ccc2[nH]c(NCc3ccc(N4CCC(c5ccc(Cl)cc5)CC4)cc3)nc2c1 [Compound 115] the listed melting point is > 220 °C

Documented melting point of O=C(Nc1nc2cc(NCc3cnc[nH]3)ccc2[nH]1)c1ccc(F)cc1 [Compound 27] : > 142.9 °C (dec.)

Values compiled from patent US11447486B2.
